Where do the numbers come from? From patent US20030186890A1.

System: K562 cells
Experiment: Cell penetration of NBD-labelled peptides by flow cytometry (FACS)
Type: cell-based
Settings: Time 60 min, NBD-labelled peptide 1 μM, 37° C.
measurementType: penetration (mean fluorescent intensity)
Just the number, please, no unit attached.

Before answering, review these 5 worked examples.
                                  substance                           measurementtype  measvalue
0  R R L W Y L R R R F (RRLWYLRRRF) [SM4287]  penetration (mean fluorescent intensity)         60
1  R R L W L L R R R F (RRLWLLRRRF) [SM4288]  penetration (mean fluorescent intensity)         61
2  R G G R L S Y S R R R F S T S T G R (RGGRLSYSRRRFSTSTGR) [SynB1, reference compound]  penetration (mean fluorescent intensity)         12
3  R L R W R L R L R F (RLRWRLRLRF) [SM4292]  penetration (mean fluorescent intensity)        146
4  R G G R L V Y V R R R W V V V V G R (RGGRLVYVRRRWVVVVGR) [SM3980]  penetration (mean fluorescent intensity)         62

--- query ---
For the substance shown here, R L R W R L R Y R F (RLRWRLRYRF) [SM4291] , give the reported penetration (mean fluorescent intensity).
118
